targetEntity: RIPK2 (KD)/XIAP (BIR2) (Homo sapiens)
Sequence (O43353 1-310): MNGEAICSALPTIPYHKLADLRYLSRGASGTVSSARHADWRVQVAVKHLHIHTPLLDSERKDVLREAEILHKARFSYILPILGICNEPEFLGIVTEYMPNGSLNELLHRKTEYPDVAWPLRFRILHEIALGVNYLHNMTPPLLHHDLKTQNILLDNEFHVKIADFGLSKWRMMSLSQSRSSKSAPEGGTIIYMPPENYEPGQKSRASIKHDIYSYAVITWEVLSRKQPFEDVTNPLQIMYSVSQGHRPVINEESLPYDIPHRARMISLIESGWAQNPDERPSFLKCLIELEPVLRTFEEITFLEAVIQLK
assayName: RIPK2-XIAP binding competition PPI assay (TR-FRET)
conditionsUsed: GST-RIPK2 / His-XIAP (BIR2)-avi, 120 min at 23° C.
pIC50: −log10 of the molar value.
Recorded measurements of pIC50, one per entry

> print(dat)
                                    compound  propertymeasured        result
 1  CCn1nc(-c2cnc3cc(OCCO)c(S(=O)(=O)C(C)(C)C)cn23)cc1C(=O)N[C@@H](C)c1cc(C)ccn1 [Example 135]             pIC50        < 6.00
 2  COc1cc2ncc(-c3cc(C(=O)NCc4ncc(C)s4)n(C)n3)n2cc1S(=O)(=O)C(C)(C)C [Example 89]             pIC50  7.00 to 8.00
 3  COc1cc2ncc(-c3cc(C(=O)NCc4ccccn4)n(C)n3)n2cc1S(=O)(=O)C(C)(C)C [Example 26]             pIC50  6.00 to 7.00
 4  COc1cc2ncc(-c3cc(C(=O)N[C@H](C)c4ncccn4)n(CC(F)(F)CO)n3)n2cc1S(=O)(=O)C(C)(C)C [Example 107]             pIC50  7.00 to 8.00
 5  COc1cc2ncc(-c3cc(C(=O)NCc4nc(C)no4)n(C)n3)n2cc1S(=O)(=O)C(C)(C)C [Example 78]             pIC50        < 6.00
 6  COc1cc2ncc(-n3cc(NC(=O)Cc4c(F)cccc4Cl)cn3)n2cc1S(=O)(=O)C(C)(C)C [Example 159]             pIC50  6.00 to 7.00
 7  CCn1nc(-c2cnc3cc(OCCO)c(S(=O)(=O)C(C)(C)C)cn23)cc1C(=O)N[C@H](C)c1ncccn1 [Example 119]             pIC50        > 8.00
 8  COc1cc2ncc(-n3cc(NC(=O)CC4CCCCC4)cn3)n2cc1S(=O)(=O)C(C)(C)C [Example 167]             pIC50        < 6.00
 9  COc1ccn2ncc(-c3cc(NC(=O)C4(F)CCCCC4)n(CCO)n3)c2n1 [compound 194]             pIC50        < 6.00
10  COc1cc2ncc(-c3cc(C(=O)NC4(c5ncccn5)CC4)n(C)n3)n2cc1S(=O)(=O)C(C)(C)C [Example 55]             pIC50        < 6.00

What does the data say about its pIC50? Entry: COc1cc2ncc(-c3cc(C(=O)N[C@H](C)c4ncccn4)n(C)n3)n2cc1S(=O)(=O)C(C)(C)C [Example 103]
7.00 to 8.00

What does the data say about its pIC50? Entry: C[C@@H](NC(=O)c1cc(-c2cnc3cc(OCCO)c(S(=O)(=O)C(C)(C)C)cn23)nn1C)c1ncccc1Cl [Example 111]
7.00 to 8.00

Data credit: patent US20260091026A1
